This collection of values is drawn from PubChem BioAssay.

experiment: glucagon-like peptide 1 release enhancers, primary assay, NCI-H716 cell line, NPC library (AID 1117341); conditions: NCI-H716 cells, at 10 µM, hits give high values; note: reference of the scale not given here
# GLP1 secretion stimulation per entry
measured parameter: GLP1 secretion stimulation (%)

> print(dat)
                                    molecule          measured.parameter  units.text  recorded.result
 1  OC1(c2ccc(Cl)c(C(F)(F)F)c2)CCN(CCCC(c2ccc(F)cc2)c2ccc(F)cc2)CC1  GLP1 secretion stimulation           %             51.4
 2  CC1(O)CCC(C(C)(C)O)CC1 (stereo not given)  GLP1 secretion stimulation           %             -5.3
 3  CCCCNc1ccc(C(=O)OCCOCCOCCOCCOCCOCCOCCOCCOCCOC)cc1  GLP1 secretion stimulation           %             -2.3
 4  O=S(=O)(O)Oc1ccc(C(c2ccc(OS(=O)(=O)O)cc2)c2ccccn2)cc1  GLP1 secretion stimulation           %              1.3
 5  COC(=O)C1=C(C)NC(C)=C(C(=O)OC(C)(C)CN(C)CCC(c2ccccc2)c2ccccc2)C1c1cccc([N+](=O)[O-])c1 (stereo not given)  GLP1 secretion stimulation           %             -3.7
 6  C#C[C@]1(OC(C)=O)CC[C@H]2[C@@H]3CCC4=C/C(=N/O)CC[C@@H]4[C@H]3CC[C@@]21CC  GLP1 secretion stimulation           %             -2.6
 7  CO[C@]1(NC(=O)CSC(F)F)C(=O)N2C(C(=O)O)=C(CSc3nnnn3CCO)CO[C@H]21  GLP1 secretion stimulation           %                4
 8                                OCc1ccccn1  GLP1 secretion stimulation           %             -2.9
 9           Cc1cccc(C)c1NC(=O)CC12CCCN1CCC2  GLP1 secretion stimulation           %                5
10  COc1cc(C(C)=O)ccc1OCCCN1CCC(c2noc3cc(F)ccc23)CC1  GLP1 secretion stimulation           %              6.5
11    CN(Cc1ccc(C(C)(C)C)cc1)Cc1cccc2ccccc12  GLP1 secretion stimulation           %               -4
12                  CC[C@H](C)[C@H](N)C(=O)O  GLP1 secretion stimulation           %             -0.4
13  CC1CCC(C(C)C)C(OC(=O)c2ccccc2O)C1 (stereo not given)  GLP1 secretion stimulation           %             -8.7
14  O=C(NCC1CN(c2ccc(N3CCOCC3=O)cc2)C(=O)O1)c1ccc(Cl)s1 (stereo not given)  GLP1 secretion stimulation           %             -0.6
15         CN(C)C/C=C(/c1ccc(Br)cc1)c1cccnc1  GLP1 secretion stimulation           %                8
16  Cc1c(C)c2c(c(C)c1O)CCC(C)(COc1ccc(CC3SC(=O)NC3=O)cc1)O2 (stereo not given)  GLP1 secretion stimulation           %             11.9
17  CN1CCN(c2c(F)cc3c(=O)c(C(=O)O)cn4c3c2OCN4C)CC1  GLP1 secretion stimulation           %             -0.1
18  CCCCC(CC)COC(=O)C(C#N)=C(c1ccccc1)c1ccccc1 (stereo not given)  GLP1 secretion stimulation           %             -1.3
19  CCCC(=O)O[C@]1(C(=O)CO)CC[C@H]2[C@@H]3CCC4=CC(=O)CC[C@]4(C)[C@H]3[C@@H](O)C[C@@]21C  GLP1 secretion stimulation           %              3.7
20  CN1CCN(CCCN2c3ccccc3Sc3ccc(S(=O)(=O)N(C)C)cc32)CC1  GLP1 secretion stimulation           %             -2.9
